test: yeast display, Sf9 membrane polyspecificity reagent, FACS + sequencing; frameworks hold sequencing errors
Outcome measure: polyreactivity (PSR sort gate)

Below, each entry is followed by its recorded polyreactivity (PSR sort gate) result.
QVQLVESGGGLVQAGGSLRLSCAASGRIFGIYAMGWYRQAPGKERELVAAISKSGARTYYADSVKGRFTISRDNAKNTVFLQMNSLKPEDTAVYYCNAYRRKYYFTYGSWGQGTQVTVSS
high polyreactivity
QVQLVESGGGLVQAGGSLRLSCAASGRTFEYYAMGWYRQAPGKERELVASITSSGVRTYYADSVKGRFTISRDNAKNTVYLQMNSLKPEDTAVYYCAKRLVYSRWGDYWGQGTQVTVSS
high polyreactivity
QVQLVESGGGLVQAGCSLRLSCAASGFTFDDYAMGWYRQAPGKERELVAAISWSGGSTYYADSVKGRFTISRDNAKNTVYLQMNSLKPEDTAVYYCAALRTGAQYSTMDYWGQGTQVTVSS
low polyreactivity
QVQLVESGGGLVQAGGSLRLSCAASGRTFDPNAMGWYRQAPGKERELVAAIRWTGTSTYYADSVKGRFTISRDNAKNTVYLQMNSLKPEDTAVDYCNARGSYRLRYDYWGQGTQVTVSS
high polyreactivity
QVQLVESGRGLVQAGGSLRLSCAASGRTFRAYAMGWYRQAPGKERELVAAISSRGGSTYYADSVKGRFTISRDNAKNTVYFQMNSLKPEDTAVYYCNVDRYVRGLITFDYWGQGTQVTVSS
high polyreactivity
QVQLVESGGGLVQAGGSLRLSCAASGSTFWKYVMGWYRQAPGKERELVAAIDTGASTNYADSVKGRFTISRDNAKYTVYLQMNSLKPEDTAVYFCNAELWYGPDELTGDYWGQGTQVTVSS
low polyreactivity
QVQLVESGGGFVQAGGSLRLSCAASGSICAGYAMGWYRQAPGKERVLVAGITIGGSTNYADSVKGRFTISRDNAKNTVYLQMNSLKPEDTAVYYCAARRVQSVYRIPRRYHSYGYWGQGTQVTVSS
high polyreactivity
QVQLVESGGGLVQAGGILRLSCAASGRTLSKNAMGWYRQAPGKERELVATISSVGRTNYADSVKGRFTISRDNEKITVYLQMISLKPEDTAVYYCSARRFRGSYYWGQGTQVTVSS
high polyreactivity

What value of measured polyreactivity (PSR sort gate) is listed for QVQLVESGGGLVQAGGSLRLSCAASGYTIRYYAMGWYRQAPGKERELVAAISYSGGRTYYADSVKGRFTISRDNAKNTDYLQMNSLKPEDTAVYYCNAGYYSYRYRYGYDYWGQGTQVTVSS ?
high polyreactivity

Query (sequence): QVQLVESGGGLVQAGGSLRLSCAASGFTFRIYAMGSYRQAPGKERELVAAISWAGGSTFYADSVKGRFTISRDNAKNTVYLQMNSLKPEDTAVYYCAADTAFHYDYWGQGTQVTVSS ; field requested: polyreactivity (PSR sort gate)
low polyreactivity

What value of polyreactivity (PSR sort gate) has been reported for the following sequence? QVQLVESGGGLVQAGGSLRLSCAASGRTFGIYAMGWYRQAPGKEREMVAAISRGGNTYADSVKGRFTISRDNAKNTVYLQMNSLKQEDTAVYYCAAYSSYYVHRFQHYDYWGQGTQVTVSS
high polyreactivity

Which polyreactivity (PSR sort gate) value is on record for QVQLVESGGGLVQAGGSLRLSCAASGITLYDNAMGWYRQAPGKERELVAAINVNDVSTYYADSVKGRFTISRDNAKNTVYLQKNSLKPEDTAVYYCAADSLYYGIGYWVVRYDYWGQGTQVTVSS ?
low polyreactivity

Which polyreactivity (PSR sort gate) value is on record for QVQIVESRGGLVQAGGSLRLSCAASGRILYLYAMGWYRQAPGKERELVARISQRDGSTYYADSVKGRFTISRDNAKNNDYLHMNSLKPEDTAVYYCNAVFSRGSYGYSYDYWGQGTQVTVSS ?
low polyreactivity

Returns the measured polyreactivity (PSR sort gate) for the input sequence. Input: QVQLVESGGGLVQAGGSLRLSCAASGRIFRYYTMGWYRQAPGKERELVAAISGRGGRTYYADSVKGRFTISRDNAKNTVYLQMNSLKPEDTAVYYCNAYDHPIYRLDYWGQGTQVTVSS
high polyreactivity

// polyreactivity (PSR sort gate) lookup, key: QVQLVESGGGLVQAGGSLRLSCAASGSIFYLNAMGWYRQAPGKERELDAAIRWSGGSTRYADSVKGRFTISRDNAKNTVYLQMNSLKPEDTAVYYCAKYNPVLVYHWWYYYWGQGTQVTVSS
high polyreactivity

Fill in the blank: the reported polyreactivity (PSR sort gate) of QVLLQESGGGLVQAGGSLRLSCAASGNIFSAGGMGCYRQAPVNERELVAGIGTGTSTNYADSVKGRFTISRDNAKNTVYLQMNSLKPEDTAVYYCAAAYYSGLSHWYWGQGTQVTVSS is ____.
low polyreactivity

###

assay: yeast display, Sf9 membrane polyspecificity reagent, FACS + sequencing; frameworks hold sequencing errors
Outcome measure: polyreactivity (PSR sort gate)

QVQLVESGGGLVQAGGSLRLSCAASGRTFVHYTMGWYRQAPGKERELVATISTSGGSTSYADSVKGRFTISRDNAKNTVYLQMNSLIPEDTAVYYCAARWYFPDRVKYDYWGQGTQVTVSS
low polyreactivity
QFQLVETGGGLVQAGGSLRLSSAASGSTFTLYAMGWYRQAPGKERELVATITGSGGSTNYADSVKGRFTISRDNAKNTVYLQMNSLKPEDTAVYYCAADYAVYSFTEFNYWGQGTQVTVSS
high polyreactivity
QDQLVESGGGLVQAGGSLRLSGAASGRTFRRYAKGWDRQAPGKEREWVATISSGGSTYYADSVKGRFTISRDNAKNTVYLQMNSLKPEDTALYYCAVRYWRAYYRYDYWGQGTQVTVSS
high polyreactivity
QVQLVESGGGLVQAGGSLRLSFAASGIIFVGYAMGWYRQAPGKEMELVAAISTSSRTYYADSVKGRFTISRDNAKNTVYLQMNIQKPEDTAVYYCNARGTRWYYRHEYWGQGTQVTVSS
high polyreactivity
QVQLVESGGGLVQAGGSLRLSCAASGSIFRYNAMGWYRQAPGKERELVAAITWSGGSTYYADSVKGRFTISRDNAKNTVYLQMNSLKPEDTAVYYCAASPYPHYRRYTGGFYYWGQGTQVTVSS
high polyreactivity

Quick one: polyreactivity (PSR sort gate) of QVQIVESGGGLVQAGGSLRLSCAPSGRIFRKYAMGWYRQAPGKERELVAAISVGGGSTRYADSVKGRFTISRDNAKNTVYLQMNSLKPEDTAVYYCAVKWFSGGYDYWGQGTQVNVSS ?
low polyreactivity

Dear colleague, I am looking for the recorded polyreactivity (PSR sort gate) of the following sequence: QVQHVESGGGLVQAGGSLRLSCAASGSTFAFNTMGWYRQSPGKEWELVAGISSNGGRTYYADSVNGRFTISRDNAKNTVYLQMNSLKPEDTAVYYCNRASVFHYRWYYYWGQGTQVTVSS
high polyreactivity

Need polyreactivity (PSR sort gate), item QVQLVESGGGLVQAGGSLRFSCAASGRIFRFYAMGWYRQAPGKERELVAAISSRGGSTYYADSVKGRFTISRDNAKNTVYLQMNSLKPEDTAVYYCNAYGSTSQLDYWGQGTQVTVSS
high polyreactivity

Reported polyreactivity (PSR sort gate), sequence QVQLVESGGGLVQAGGSLRLSCAASGRIFWRNTMGWYRQAPGKERELVAAITRTGGSTYYADSVKGRFTISRDNAKNTVYLQMNSLKPEDTAVYYCAVYARWYGYGYGYWGQGTQVTVSS : ____
high polyreactivity

Entry QVQLVESGGGLVQAGGSLRLSCAASGSTLKYYTMGWYRQAPGKERELVAAISWSGGRTYYADSVKGRFTISRDNAKNTVYLQMNCLKPEDTAVYYCAKYPGYRSSGRISYEYDYWGQGTQVTVSS : reported polyreactivity (PSR sort gate) = ?
high polyreactivity

Report polyreactivity (PSR sort gate) for QVKLLESGGGLVQAGGSLRLTCAASGFIFRRYTMGWYRHAPGEEREWVAAISITGSRTYYADSVKGRFTISPDNAKNNVYLQMNSLKPEDTAVYYCAADPDKSSAGDFDYWGHGTQVTVSS please.
high polyreactivity

###

assay: yeast display, Sf9 membrane polyspecificity reagent, FACS + sequencing; frameworks hold sequencing errors
Outcome measure: polyreactivity (PSR sort gate)

QDQLVESGGGLVQAGGSLRLSCAASGSTFNIYAMGWYRQAHGTVRELVARITSGGSTNYADSVKGRFTISRDNAKNTVYLQMKSLKPEDTAVYYCAARLKWGLPTYDYWGQGTQVTVSS
high polyreactivity
QVQLVESGGGLVQAGGSLRLSGAASGRIFDIYAMGWYRQAPGKERELVAGITSVGSTNYADSVKGRFTISRDYAKNTVYLQMNSLKPEDTAVYYCAADTSVHSEVDYGGQGTQVTVSS
low polyreactivity
QVQLVESGGGLVQAGGSLGLSCAASGGILQSYAMGWYRQAPGKERELVATITYSAGSTYYADSVKGRFTISRDNAKNTVYLQMKSLKPEDTAVYVCAARRIPPARYKGYYYWGQGTQLTVSS
high polyreactivity
QVQLVESGGGLVQAGGSLRISCAPSGSTFYTNAMGWYRQAPGKEREFVAAISWSGSSTYADSVKGRFTISRDNAKNTVYLQMNSLKPEDTAVYYFAADWFKLRTDYYWGQGTQVTVSS
low polyreactivity
QVQLVESGGGLVQAGGSLRLSCAASGRTFEGYTMGWYRQAPGKERELVSAISWSGARTYYADSVKGRFTISRDNAKNTVYLQMNSLKPEDTAVYYCAADRYWISLWYIMGYWGQGTQVTVSS
high polyreactivity

Consider the additional sequence presented here.
Entry under review: QVQLVESGGGLVQAGGSLRLSCAASGRILSYYAMGWYRQAPGKERELVATISASGGSTYYADSVKGRFTISRDNAKNTVYLQMNSLKPEDTAVYYCAAARVPAYYLRYFYRTTYDYWGQGTQVTVSS . Reported polyreactivity (PSR sort gate)?
high polyreactivity
